# Target: Flpin-293-PDE4B2 cells (Homo sapiens, UniProt Q07343)
# Sequence (Q07343 1-564 isoform Q07343-2): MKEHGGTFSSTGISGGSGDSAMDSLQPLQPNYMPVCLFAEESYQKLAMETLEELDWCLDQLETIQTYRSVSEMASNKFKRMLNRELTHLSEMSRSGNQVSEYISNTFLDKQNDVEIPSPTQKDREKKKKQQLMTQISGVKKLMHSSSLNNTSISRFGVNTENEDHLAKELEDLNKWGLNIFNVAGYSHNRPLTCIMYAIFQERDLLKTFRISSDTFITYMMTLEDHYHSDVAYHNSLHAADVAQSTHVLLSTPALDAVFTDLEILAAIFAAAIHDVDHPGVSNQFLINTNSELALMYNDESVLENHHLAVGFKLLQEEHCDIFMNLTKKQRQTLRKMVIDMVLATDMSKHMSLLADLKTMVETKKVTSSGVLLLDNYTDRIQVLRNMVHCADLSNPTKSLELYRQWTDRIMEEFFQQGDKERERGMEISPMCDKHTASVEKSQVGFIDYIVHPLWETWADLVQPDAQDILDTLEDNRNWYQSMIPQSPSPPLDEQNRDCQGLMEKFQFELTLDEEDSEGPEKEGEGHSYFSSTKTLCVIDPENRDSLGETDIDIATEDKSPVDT
# Experimental Details: cell-based
# Protocol Conditions: read-out: Cell Inhibition % @100 nM, 100 nM, Flpin-293-PDE4B2 cells
Known inhibition at 0.1 µM of a selection of compounds
Put down the number, then write its unit next to it.

Reference set, count: 10
{"Compound": "[O-][S+]1CCc2nc(N3CC[C@@H]4c5ccc(Br)cc5OC[C@H]4C3)nc(NC3(CO)CCC3)c21 (stereo partly drawn)", "inhibition at 0.1 µM": "97.7%"}
{"Compound": "C[C@@H]1Cc2cc(Cl)ccc2CN1c1nc2c(c(NC3(CO)CCC3)n1)[S+]([O-])CC2 (stereo partly drawn)", "inhibition at 0.1 µM": "29.4%"}
{"Compound": "Cn1cc(CNc2nc(N3CCc4cc(Cl)ccc4C3)nc3c2[S+]([O-])CC3)cn1 (stereo not drawn)", "inhibition at 0.1 µM": "94.4%"}
{"Compound": "C[C@H]1c2ccc(N3CCCC3)cc2CCN1c1nc2c(c(NC3(CO)COC3)n1)[S+]([O-])CC2 (stereo partly drawn)", "inhibition at 0.1 µM": "99.9%"}
{"Compound": "COc1ccc2sc3c(c2c1)CCN(c1nc2c(c(NC4(CO)CCC4)n1)[S+]([O-])CC2)C3 (stereo not drawn)", "inhibition at 0.1 µM": "99.9%"}
{"Compound": "O=[N+]([O-])c1ccc2c(c1)CN(c1nc3c(c(NC4(CO)CCC4)n1)[S+]([O-])CC3)C2 (stereo not drawn)", "inhibition at 0.1 µM": "55.2%"}
{"Compound": "CC(=O)N1CC[C@H](Nc2nc(N3CCc4cc(N5CCCC5)ccc4[C@@H]3C)nc3c2[S+]([O-])CC3)C1 (stereo partly drawn)", "inhibition at 0.1 µM": "101%"}
{"Compound": "[O-][S+]1CCc2nc(N3CCc4cc(N5CC(F)C5)ccc4C3)nc(NC3(CO)CCC3)c21 (stereo not drawn)", "inhibition at 0.1 µM": "95.3%"}
{"Compound": "C[C@H]1c2ccc(N3CCCC3)cc2CCN1c1nc2c(c(NC3CCOCC3)n1)[S+]([O-])CC2 (stereo partly drawn)", "inhibition at 0.1 µM": "101%"}
{"Compound": "[O-][S+]1CCc2nc(N3CCc4cc(N5CC[C@@H](F)C5)ccc4C3)nc(NC3(CO)CCC3)c21 (stereo partly drawn)", "inhibition at 0.1 µM": "97.5%"}

// next item, inhibition at 0.1 µM requested
Challenge: What does the data say about its inhibition at 0.1 µM? Entry: N#CCc1ccc(Nc2nc(N3CCc4cc(Cl)ccc4C3)nc3c2[S+]([O-])CC3)cc1 (stereo not drawn)
Response given: 89.6%

###

Lab note: pIC50 readings collected with Flpin-293-PDE4B2 cells (Homo sapiens, UniProt Q07343) for the following molecules.
# log scale: pIC50 equals minus log10 of the concentration in mol/L

{"Molecule": "C[C@@H]1c2ccc(Cl)cc2CCN1c1nc2c(c(NC3(CO)CCC3)n1)[S@+]([O-])CC2", "pIC50": 7.68}

Please turn your attention to the following entry.
Challenge: Record lookup: for Flpin-293-PDE4B2 cells (Homo sapiens, UniProt Q07343), what pIC50 belongs to C[C@H]1c2ccc(N3CCCC3)cc2CCN1c1nc2c(c(NC3(CO)CCC3)n1)[S+]([O-])CC2 (some centres unmarked) ?
Response given: 7.68

These data points were gathered from patent US20260285880A1.
